- TARGET_OR_TEST_SYSTEM: T1, ProQ (minimal ProQ, FinO domain with short N- and C-terminal extensions) (Neisseria meningitidis, UniProt Q9JY98 1-141)
- T1 sequence: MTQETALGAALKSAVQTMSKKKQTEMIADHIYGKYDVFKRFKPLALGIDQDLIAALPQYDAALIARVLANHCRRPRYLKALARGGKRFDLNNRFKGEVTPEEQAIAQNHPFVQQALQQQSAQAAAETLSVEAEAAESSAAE
- ASSAY_SUMMARY: EMSA; max bound 53%; 25 mM Tris pH 7.5, 150 mM NaCl, 5% glycerol, 1 mM MgCl2, 1 nM 32P-RNA, ProQ up to 50 nM, 30 min at room temperature; 6% native gel at 4 C
- ASSAY_SETUP: protein: recombinant; tags: N-terminal His6-TEV, cleaved; one extra N-terminal Ser remains; label: 5'-32P; terminator hairpin, 4-U tail
MEASURE: Kd (nM)
Form entry: value (nM) — number only.

Quick one: give measured Kd for GGUUUCCUCUUGAUGUGUGUGUUUGGGUGUGGCUGCCGCCACCCCUUUU (structured_RNA) [AniS-U4]
0.9

Origin of measurements: paper PMC11912907
